test system: HOP-62 NSCLC; assay: NCI tumour cell line growth inhibition, 48 h
Record form. Attribute: GI50. Fill in for each entry.

Previously resolved entries follow.
{"Compound": "CC(=O)OC1=C2C(CC3C4CC=C5CC(OC(C)=O)CCC5(C)C4CCC23C)C2C(=O)N(Cc3ccccc3)C(=O)C2C1 (stereo not drawn)", "Observed": "35.9 µM"}
{"Compound": "C[C@@]12CCC[C@@](C)(C(=O)O)C1CC[C@@]13CC(=O)[C@@](CO)(CCC12)C3 (stereo partly drawn)", "Observed": "> 100 µM"}

Now, please, on to the next compound.
[in] Recorded GI50 for C=C1C(=O)O[C@H]2[C@H]1CC/C(COC(=O)C(=O)c1cn(C)c3ccc(OC)cc13)=C\CC[C@@]1(C)O[C@@H]21 with HOP-62 NSCLC, please?
[out] 6.46 µM

* * *

test system: NCI-H226 lung; experiment: NCI tumour cell line growth inhibition, 48 h
Test readout: TGI

Previously resolved entries follow.
{"Compound": "O=C(NC(CO)CO)c1ccc2cc(C(=O)N3CC(CCl)c4ccc([N+](=O)[O-])cc43)[nH]c2c1 (stereo not drawn)", "Observed": "> 100 µM"}
{"Compound": "CC1(CO)C(=O)OC12CCCCC2 (stereo not drawn)", "Observed": "> 100 µM"}

Go through the list and state TGI for each entry.
1. O=C(Nc1cccc(C(F)(F)F)c1)c1cc(-c2ccccc2)nc(=S)[nH]1
2. CCOC(=O)c1cnc2c(cnn2CC)c1NN=C(C)C
3. O=C1CC(c2c[nH]c3ccccc23)C(=O)N1c1ccccc1 (stereo not drawn)
4. Clc1ccc(-c2cn(-c3ccccc3)c(-c3ccccc3)n2)c(Cl)c1
5. C=C1CO[C@@H]2C[C@@H]1CCC1(C)OC1CC/C(C)=C/CC[C@@]2(C)O (stereo partly drawn)
6. COC(=O)c1ccccc1N=Cc1ccc(N(CCC#N)S(=O)(=O)c2ccccc2)cc1

[out]
> 100 µM
> 100 µM
> 100 µM
> 50 µM
> 100 µM
> 100 µM

Go through the list and state TGI for each entry.
1. COc1ccc2c(c1)C(=O)c1c-2n(CCCCl)c(=O)c2cc(N(C)C)ccc12
2. CN1N(c2ccccc2)C(=O)C2=NC=C(C#N)C(=N)C21C (stereo not drawn)
3. COc1cnnc2c(C)c(-c3ccccc3)nn12
4. Nc1ccc(-c2nc3cc(F)ccc3s2)cc1

[out]
1: > 100 µM; 2: > 100 µM; 3: > 100 µM; 4: > 100 µM

[in] Give its TGI value. Item: c1cn[nH]c1
[out] > 10 µM

* * *

tested on: EKVX NSCLC; assay: NCI tumour cell line growth inhibition, 48 h; in the data active = GI50 below about 0.43 µM; inactive = the rest
Outcome field: choose from t for active, f for inactive

// below: answered molecules
{"Molecule": "CN1c2ccccc2C(C)(C)C12CC(c1ccc(Cl)c(S(=O)(=O)N3CCCC3)c1)=NO2 (stereo unspecified)", "System name": "EKVX NSCLC", "Class assignment": "f"}
{"Molecule": "C=C1CO[C@@H]2C[C@@H]1CCC1(C)OC1CC/C(C)=C/CC[C@@]2(C)O (stereo partly specified)", "System name": "EKVX NSCLC", "Class assignment": "f"}
{"Molecule": "CC(C)[C@@H](CS(=O)(=O)C(C)C)N1C(=O)[C@@](C)(CC(=O)O)C[C@H](c2cccc(Cl)c2)[C@H]1c1ccc(Cl)cc1", "System name": "EKVX NSCLC", "Class assignment": "f"}
{"Molecule": "COC1CCC(n2c([C@@H]3CCCC(=O)N3c3ccc(F)c(F)c3)nc3cc(-c4c(C)noc4C)ccc32)CC1 (stereo partly specified)", "System name": "EKVX NSCLC", "Class assignment": "f"}
{"Molecule": "COC(=O)[C@H](Cc1ccccc1)NC(=O)[C@@H](OC)[C@@H]1Cc2cc3cc(OC4CC(OC5CC(O)C(O)C(C)O5)C(O)C(C)O4)c(C)c(O)c3c(O)c2C(=O)[C@H]1OC1CC(OC2CC(OC3CC(C)(O)C(O)C(C)O3)C(O)C(C)O2)C(O)C(C)O1 (stereo partly specified)", "System name": "EKVX NSCLC", "Class assignment": "t"}

[in] Field: outcome | Entry: C=C1C(=O)O[C@H]2[C@H]1CC/C(COC(=O)C(=O)c1cn(C)c3ccc(OC)cc13)=C\CC[C@@]1(C)O[C@@H]21
[out] f

* * *

tested on: RXF 393 renal; assay: NCI tumour cell line growth inhibition, 48 h
Record form. Attribute: log10(TGI). Fill in for each entry.
Form field - Quantity: TGI; Unit: µM; Scale: log10

Previously resolved entries follow.
{"Compound": "Cc1nc2ccccc2cc1C[N+]12CN3CN(CN(C3)C1)C2", "Test readout": "log10(TGI)", "Observed": 1.61}
{"Compound": "CC(CN(C)C)C(=O)/C=C/c1ccc(Cl)c(Cl)c1 (centres undefined)", "Test readout": "log10(TGI)", "Observed": 1.61}
{"Compound": "COc1cccc(/C=N/n2c(Cc3ccc(Cl)cc3)n[nH]c2=O)c1", "Test readout": "log10(TGI)", "Observed": 1.05}

Go through the list and state log10(TGI) for each entry.
1. O=C(O)C(CO)NC(=O)C1C(C(=O)O)C(c2ccccc2[N+](=O)[O-])C=C(c2ccco2)N1c1ccncc1 (centres undefined)
2. CC12CCC(O)CC1CCC1C2CCC2(C)C(C3=CC(=O)OC3)CCC12 (centres undefined)
3. COc1ccc(-c2nn(-c3cccc(NC(=O)Nc4cccc(C(F)(F)F)c4)c3)cc2-c2ccncc2)cc1Cl
4. CC(C)(C)c1nnc2n(c1=O)N=CC(c1ccc(Br)cc1)S2 (centres undefined)

[out]
1: 0.49; 2: 1.63; 3: 0.80; 4: 1.92

* * *

test system: KM12 colon; test: NCI tumour cell line growth inhibition, 48 h
Record form. Attribute: TGI. Fill in for each entry.

{"Molecule": "Cc1oc2c(C)c3oc(=O)cc(C)c3cc2c1CN", "TGI": "> 100 µM"}
{"Molecule": "Cc1nn(C)c(=O)c2nn(-c3ccccc3)c(C)c12", "TGI": "> 100 µM"}
{"Molecule": "O=C1NC(=S)NC(=O)C1=Cc1ccc2ccccc2n1", "TGI": "> 100 µM"}
{"Molecule": "Clc1ccc(-c2nn3c(C45CC6CC(CC(C6)C4)C5)nnc3s2)cc1", "TGI": "> 100 µM"}
{"Molecule": "CCc1cc2c(oc3c4ccccc4ccc23)c(=O)[nH]1", "TGI": "> 10 µM"}

Now, please, on to the next molecule.
[in] Give its TGI value. Item: COc1ccc(CCC2NCCc3cc(OC)c(OC)cc32)cc1 (stereo unspecified)
[out] > 100 µM

* * *

test system: ACHN renal; assay: NCI tumour cell line growth inhibition, 48 h
Test readout: TGI

Go through the list and state TGI for each entry.
1. O=C1C(CN2CCCC2)CCCC1CN1CCCC1 (stereo not drawn)
2. O=C1C(=O)c2c(nc3ncccn23)-c2ccccc21
3. Nc1ccc(-c2nc3cc(F)ccc3s2)cc1

[out]
["3.42 µM", "0.373 µM", "> 61.7 µM"]

Go through the list and state TGI for each entry.
1. O=C(c1ccccc1)n1[nH]c(=O)n(-c2ccc(Cl)cc2)c1=O
2. O=C(O/N=C1/CCCC/C1=C\c1ccccc1)c1ccc(Cl)cc1
3. COc1ccc(-c2nn(-c3cccc(NC(=O)Nc4cccc(C(F)(F)F)c4)c3)cc2-c2ccncc2)cc1Cl
4. COc1ccc2c(c1)C(=O)c1c-2n(CCCCl)c(=O)c2cc(N(C)C)ccc12
5. O=C1NC(=S)NC(=O)C1=Cc1ccc2ccccc2n1
6. C1=C[C@]2(CCC13OCCO3)COc1ccccc12
7. O=C1C=C(Nc2nc(C(=O)O)cc(=O)[nH]2)c2ccccc2C1=O
8. CCOC(=O)/C=C1/Nc2cc(F)c(F)cc2NC1=O

[out]
["> 100 µM", "> 100 µM", "> 100 µM", "> 100 µM", "> 100 µM", "> 100 µM", "> 100 µM", "> 100 µM"]

Go through the list and state TGI for each entry.
1. Cc1ccc([Se][Se]c2ccc(C)cc2)cc1
2. Cc1ccc(-n2c(-c3ccc(Cl)cc3)cs/c2=N\NC(=O)COc2n[nH]c(=O)c3ccccc23)cc1

[out]
> 100 µM
> 100 µM

* * *

Record form. Attribute: TGI. Fill in for each entry.
system: SK-MEL-5 melanoma; experiment: NCI tumour cell line growth inhibition, 48 h

Previously resolved entries follow.
{"Compound": "O=C1C=C(Nc2nc(C(=O)O)cc(=O)[nH]2)c2ccccc2C1=O", "Test readout": "TGI", "Observed": "> 100 µM"}
{"Compound": "Cn1cnc([N+](=O)[O-])c1Sc1nnc(C(F)(F)F)n1C", "Test readout": "TGI", "Observed": "> 100 µM"}
{"Compound": "CC12CCC(O)CC1CCC1C2CCC2(C)C(C3=CC(=O)OC3)CCC12 (centres undefined)", "Test readout": "TGI", "Observed": "> 100 µM"}

Go through the list and state TGI for each entry.
1. Cc1nn(C(=O)c2ccc(Cl)cc2)c2c1C(c1ccco1)SC(N)=N2 (centres undefined)
2. COc1ccc(Nc2c[nH]c(=O)[nH]c2=O)cc1

[out]
1. > 10 µM
2. > 100 µM
